These measurements were taken from patent US10975068B2.

# MEASUREMENT_TARGET: full-length human RORγt (Homo sapiens (Human))
# Sequence (P51449 other isoform, or with tags, fused parts or gaps): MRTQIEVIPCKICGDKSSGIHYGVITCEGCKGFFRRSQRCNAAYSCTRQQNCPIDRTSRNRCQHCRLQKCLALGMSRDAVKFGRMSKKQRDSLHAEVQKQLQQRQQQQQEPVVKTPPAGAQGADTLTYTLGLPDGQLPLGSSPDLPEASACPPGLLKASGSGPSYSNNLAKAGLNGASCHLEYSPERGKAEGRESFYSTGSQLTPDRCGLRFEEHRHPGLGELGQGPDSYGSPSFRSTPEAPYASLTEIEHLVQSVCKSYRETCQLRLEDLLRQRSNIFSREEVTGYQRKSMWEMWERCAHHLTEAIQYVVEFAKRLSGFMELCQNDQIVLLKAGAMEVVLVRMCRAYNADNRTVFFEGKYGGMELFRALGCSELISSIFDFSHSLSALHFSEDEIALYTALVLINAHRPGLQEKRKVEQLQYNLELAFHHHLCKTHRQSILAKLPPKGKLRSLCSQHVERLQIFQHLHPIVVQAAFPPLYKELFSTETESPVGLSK
# MEASUREMENT_DESCRIPTION: RORγt (full-length human) reporter assay, Conditions B or C
# Assay type: cell-based
# EXPERIMENTAL_CONTEXT: at 3 μM compound concentration; read-out: RORγt (FL) Reporter Assay B or C, % inhibition
RECORDED_METRIC: inhibition at 3 µM (%)

[[record]]
given_smiles = "C[C@H]1CCCN1C(=O)c1nc(C(=O)N[C@H](C)C(C)(C)O)sc1-c1cnc(NCC(C)(C)C)cc1C(F)F"
recorded_metric = "inhibition at 3 µM"
measurement = 98

[[record]]
given_smiles = "C[C@H](NC(=O)c1nc(C(=O)N2CCC[C@@H]2C)c(-c2cnc(NC(C)(C)C)cc2C(F)F)s1)C(C)(C)O"
recorded_metric = "inhibition at 3 µM"
measurement = 102

[[record]]
given_smiles = "C[C@H](CO)NC(=O)c1nc(C(=O)N2CC(F)(F)C[C@@H]2C)c(-c2cnc(N[C@@H](C)C(F)(F)F)cc2C(F)F)s1"
recorded_metric = "inhibition at 3 µM"
measurement = 89

